- test.target: T1, human MerTK (human, UniProt Q12866 26-499)
- T1 construct: also called HuMER
- T1 sequence: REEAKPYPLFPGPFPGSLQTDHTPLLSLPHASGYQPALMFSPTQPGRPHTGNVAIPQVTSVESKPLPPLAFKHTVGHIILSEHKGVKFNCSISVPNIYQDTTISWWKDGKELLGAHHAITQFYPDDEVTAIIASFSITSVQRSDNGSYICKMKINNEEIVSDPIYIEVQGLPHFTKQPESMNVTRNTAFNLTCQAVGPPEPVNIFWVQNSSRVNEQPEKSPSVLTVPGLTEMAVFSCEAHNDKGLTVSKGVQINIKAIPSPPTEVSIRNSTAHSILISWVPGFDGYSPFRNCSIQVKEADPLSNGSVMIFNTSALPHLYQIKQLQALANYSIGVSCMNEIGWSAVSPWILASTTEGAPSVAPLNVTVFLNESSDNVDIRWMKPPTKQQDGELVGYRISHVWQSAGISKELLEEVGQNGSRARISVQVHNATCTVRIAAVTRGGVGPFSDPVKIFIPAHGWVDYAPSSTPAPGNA
- protocol.details: SPR BIAcore T200, Ab captured, 37C
reported.property: pKd
Interpret pKd as the negative base-10 log of the concentration measured in mol/L.

[[record]]
binder = "h10C3.v14 (antibody, V domains shown, Humanized, human IgG1; also called 10C3 Humanized polished mAb) VH: EVQLVESGGGLVQPGGSLRLSCAASGFSLSGYTMGWVRQAPGKGLEYIGVISSGGTTYYTNWAKGRFTISKDNSKNTLYLQMGSLRAEDMAVYYCARVAFTAYGGGGFPTLHRLDLWGQGTLVTVSS VL: DQVLTQSPDSLAVSLGERATINCQSSESVYNNDYLAWYQQKPGQPPKLLIYSASTLASGVPDRFSGSGSGTDFTLTISSLQAEDVAVYYCAGGYLGNNVFGGGTKVEIK"
reported_property = "pKd"
recorded_measurement = 8.16


Read the next record carefully.
What the record says about h13B4.v1 (antibody, V domains shown, also called h13B4.V1 (Parent); 13B4 Humanized mAb V1) VH: EQQLVESGEGLVQPGGSLRLSCAVSGFSLSSYAMGWVRQAPGKGLEWIGIINSYGNTYYANWAKGRFTISRDSSKNTVYLQMGSLRAEDMAVYFCARDPGVSSNLWGPGTLVTVSS VL: DVQMTQSPSTLSASVGDRVTITCQASQNIYSGLAWYQQKPGKPPKLLIYGASKLASGVPSRFSGSGSGTEFTLTISSLQPDDFATYYCQATYYSSNSVAFGGGTKVEIK : pKd is 8.32

Where do the numbers come from? From patent US20220135701A1.
